meta.source: ChEMBL document CHEMBL1155261

Test system: Oryzias latipes
Assay: Teratogenic activity in Oryzias latipes CAB embryo assessed as induction of cyclopia phenotype at 0.01 to 100 uM
Format: organism-based
Conditions: in vivo
MEASUREMENT NAME: Activity

{"COMPOUND": "CC1=C2C[C@H]3[C@@H](CC=C4C[C@@H](O)CC[C@@]43C)[C@@H]2CC[C@]12O[C@@H]1C[C@H](C)CN[C@H]1[C@H]2C [CYCLOPAMINE]", "ASSAYED SYSTEM": "Oryzias latipes", "MEASURED": "Non-toxic"}
{"COMPOUND": "O=C(Nc1ccc(Cl)c(-c2nc3ccccc3[nH]2)c1)c1cccc(C(F)(F)F)c1", "ASSAYED SYSTEM": "Oryzias latipes", "MEASURED": "Non-toxic"}
{"COMPOUND": "COc1cc(C(=O)Nc2ccc(Cl)c(-c3nc4ccccc4[nH]3)c2)cc(OC)c1OC", "ASSAYED SYSTEM": "Oryzias latipes", "MEASURED": "Non-toxic"}
{"COMPOUND": "CCOc1cc(C(=O)Nc2ccc(Cl)c(-c3nc4ccccc4[nH]3)c2)cc(OCC)c1OCC", "ASSAYED SYSTEM": "Oryzias latipes", "MEASURED": "Non-toxic"}
